// provenance: patent US8022043B2

# System: iNKT cells
# TEST SUMMARY: In vitro cytokine modulation, murine cell assay system
# Type: cell-based
# APPLIED CONDITIONS: in vitro; DB03-3: in some murine strains
MEASURED PARAMETER: IFNγ induction

compound="CCCCC/C=C\\C/C=C\\C/C=C\\C/C=C\\CCCC(=O)N[C@@H](COC1OC(CO)C(O)C(O)C1O)[C@H](O)[C@H](O)CCCCCCCCCCCCCC (stereo partly shown)" reported="blunted IFNγ"
compound="CCCCC/C=C\\C/C=C\\CCCCCCCCCC(=O)N[C@@H](COC1OC(CO)C(O)C(O)C1O)[C@H](O)[C@H](O)CCCCCCCCCCCCCC (stereo partly shown)" reported="blunted IFNγ"
